Source: PubChem BioAssay AID651678

molecular target: Sentrin-specific protease 1 (Homo sapiens); assay: human SENP1 catalytic domain inhibitors, confirmation, biochemical, FRET endpoint, single concentration (AID 651678); conditions: recombinant SENP1, CyPet-SUMO1-YPet FRET cleavage; at 10 µM; hits give high values;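 note: 0% = enzyme with DMSO and 100% = no enzyme control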
The other results are listed elsewhere or left out.
I would appreciate it if you labelled entries 1 when inhibition is 10% or higher, otherwise 0.

Incoming: Please check the record Cn1c(-c2sc3cc(C(F)(F)F)cnc3c2-c2ccccc2)n[nH]c1=S and state if its inhibition is at or above 10%.
Outgoing: 0

Incoming: Say whether COc1ccc(OC)c(C2C3=C(N=c4s/c(=C\c5cccc(O)c5)c(=O)n42)c2ccccc2CC3)c1 (configuration not stated) shows inhibition of 10% or more.
Outgoing: 1

Incoming: Check this compound for inhibition at or above 10%: O=C1CC[C@@H]2CC3(C[C@@H]4CCN1[C@H]24)Nc1cc([N+](=O)[O-])ccc1NC3=NC1CCCCC1 (some centres not stated)
Outgoing: 1

Incoming: Could you please find out whether O=[N+]([O-])c1ccc(N=NNc2ccc([N+](=O)[O-])cc2)cc1 has inhibition that meets 10% or exceeds it?
Outgoing: 1

Incoming: Identify whether the reported inhibition of the following compound is 10% or greater: O=C1C=C(c2cccc(Cl)c2O)C[C@@H](c2ccc(F)cc2)C1
Outgoing: 1

Incoming: Assess whether reported inhibition for O=C(NC(=O)c1ccccc1)Nc1ccccc1O sits at 10% or higher.
Outgoing: 0

Incoming: Would you say COc1cc(/C=C2\CCCc3c2nc2ccccc2c3C(=O)O)cc(Cl)c1O shows inhibition at minimum 10%?
Outgoing: 1

Incoming: Does inhibition meet or surpass 10% for CC(=O)c1cccc(-c2cnc3c(NC=O)cc(-c4ccc(N(C)C)cc4)cn23)c1 ?
Outgoing: 1

Incoming: Reported inhibition at or above 10%? Cc1ccc(C(=O)N/N=C\c2cc(Br)c(Br)o2)cn1
Outgoing: 1

Incoming: hey, is inhibition for this one >= 10%? Fc1cccc(Cc2c(-c3cccc(Cl)c3)nc3ccc(Br)cn23)c1
Outgoing: 0

Incoming: Form field: inhibition at least 10%? Entry: Cc1ccc2c(c1)nnc1nnc(SCC(=O)O)n12
Outgoing: 1

Incoming: Reported inhibition at or above 10%? Cc1cccc(C)c1Nc1c(-c2ccccc2O)nc2ncccn12
Outgoing: 1
